# METHOD: in vivo
# EXPERIMENTAL PARAMETERS: rat, ip
Measured LD50, listed per entry for reference.

These recorded examples may help you get a feel for the data.
SMILES REPRESENTATION	LD50
CN(C)CC(=O)NN=Cc1c(-c2ccccc2)nc2n1CCS2	> 1000 mg/kg
Cc1cn2c(C=NNC(=O)CN(C)C)c(C)nc2s1	~600 mg/kg
CN(C)CC(=O)NN=Cc1c(-c2ccccc2)nc2sccn12	~600 mg/kg
Cc1cn2c(C=NNC(=O)CN(C)C)c(-c3ccccc3)nc2s1	> 3000 mg/kg
CN(C)CC(=O)NN=Cc1c(-c2ccc(Cl)cc2)nc2n1CCS2	~600 mg/kg
Cc1nc2n(c1C=NNC(=O)CN(C)C)CCS2	> 1000 mg/kg

Lab note: measured LD50 of `Cc1nc2sccn2c1C=NNC(=O)CN(C)C` was ~600 mg/kg

Lab note: measured LD50 of `Cc1ccc(-c2nc3n(c2C=NNC(=O)CN(C)C)CCS3)cc1` was ~600 mg/kg

Lab note: measured LD50 of `CN(C)CC(=O)NN=Cc1c(Cl)nc2sccn12` was ~250 mg/kg
